Method description: Solubility in topical solvents
Assay type: physicochemical
Experimental parameters: propylene carbonate, organic solvent or mixture; both room temperature and refrigerated condition; read-out: solubility in propylene carbonate
Result type: solubility

# solubility lookup, item `CO[C@H]1C[C@@H]2CC[C@@H](C)[C@@](O)(O2)C(=O)C(=O)N2CCCC[C@H]2C(=O)O[C@H]([C@H](C)C[C@@H]2CC[C@@H](OCCO)[C@H](OC)C2)CC(=O)[C@H](C)/C=C(\C)[C@@H](O)[C@@H](OC)C(=O)[C@H](C)C[C@H](C)/C=C/C=C/C=C/1C`
> 100 mg/mL

Next record, please: `CO[C@H]1C[C@@H]2CC[C@@H](C)[C@@](O)(O2)C(=O)C(=O)N2CCCC[C@H]2C(=O)O[C@H]([C@H](C)C[C@@H]2CC[C@@H](O)[C@H](OC)C2)CC(=O)[C@H](C)/C=C(\C)[C@@H](O)[C@@H](OC)C(=O)[C@H](C)C[C@H](C)/C=C/C=C/C=C/1C`
~30 mg/mL

* * *

Method description: Solubility in topical solvents
Format: physicochemical
Experimental parameters: DMSO, organic solvent or mixture; room temperature; read-out: solubility in DMSO
Result type: solubility

>  <Chemical string>
CO[C@H]1C[C@@H]2CC[C@@H](C)[C@@](O)(O2)C(=O)C(=O)N2CCCC[C@H]2C(=O)O[C@H]([C@H](C)C[C@@H]2CC[C@@H](O)[C@H](OC)C2)CC(=O)[C@H](C)/C=C(\C)[C@@H](O)[C@@H](OC)C(=O)[C@H](C)C[C@H](C)/C=C/C=C/C=C/1C

>  <solubility>
> 100 mg/mL

$$$$

// query solubility value for entry `CO[C@H]1C[C@@H]2CC[C@@H](C)[C@@](O)(O2)C(=O)C(=O)N2CCCC[C@H]2C(=O)O[C@H]([C@H](C)C[C@@H]2CC[C@@H](OCCO)[C@H](OC)C2)CC(=O)[C@H](C)/C=C(\C)[C@@H](O)[C@@H](OC)C(=O)[C@H](C)C[C@H](C)/C=C/C=C/C=C/1C`
> 200 mg/mL

* * *

Method description: Solubility in topical solvents
Assay type: physicochemical
Experimental parameters: Transcutol P (diethylene glycol monoethyl ether), organic solvent or mixture; both room temperature and refrigerated condition; read-out: solubility in Transcutol P
Recorded solubility, one value per entry.

>  <Molecule>
CO[C@H]1C[C@@H]2CC[C@@H](C)[C@@](O)(O2)C(=O)C(=O)N2CCCC[C@H]2C(=O)O[C@H]([C@H](C)C[C@@H]2CC[C@@H](OCCO)[C@H](OC)C2)CC(=O)[C@H](C)/C=C(\C)[C@@H](O)[C@@H](OC)C(=O)[C@H](C)C[C@H](C)/C=C/C=C/C=C/1C [Everolimus]

>  <Result type>
solubility

>  <Result>
> 100 mg/mL

$$$$

Switching to the query record.
Any idea what its solubility is? The molecule is CO[C@H]1C[C@@H]2CC[C@@H](C)[C@@](O)(O2)C(=O)C(=O)N2CCCC[C@H]2C(=O)O[C@H]([C@H](C)C[C@@H]2CC[C@@H](O)[C@H](OC)C2)CC(=O)[C@H](C)/C=C(\C)[C@@H](O)[C@@H](OC)C(=O)[C@H](C)C[C@H](C)/C=C/C=C/C=C/1C [Sirolimus]
> 80 mg/mL

* * *

Method description: Solubility in topical solvents
Format: physicochemical
Experimental parameters: N-Methyl-2-pyrrolidone (NMP), organic solvent or mixture; both room temperature and refrigerated condition; read-out: solubility in NMP
Result type: solubility

>  <Chemical string>
CO[C@H]1C[C@@H]2CC[C@@H](C)[C@@](O)(O2)C(=O)C(=O)N2CCCC[C@H]2C(=O)O[C@H]([C@H](C)C[C@@H]2CC[C@@H](OCCO)[C@H](OC)C2)CC(=O)[C@H](C)/C=C(\C)[C@@H](O)[C@@H](OC)C(=O)[C@H](C)C[C@H](C)/C=C/C=C/C=C/1C

>  <solubility>
> 100 mg/mL

$$$$

Okay, next one:
Consider the compound shown here: `CO[C@H]1C[C@@H]2CC[C@@H](C)[C@@](O)(O2)C(=O)C(=O)N2CCCC[C@H]2C(=O)O[C@H]([C@H](C)C[C@@H]2CC[C@@H](O)[C@H](OC)C2)CC(=O)[C@H](C)/C=C(\C)[C@@H](O)[C@@H](OC)C(=O)[C@H](C)C[C@H](C)/C=C/C=C/C=C/1C` What is its recorded solubility?
> 100 mg/mL
